Parameter viability at 48 h, 10 µM: see the listing below.
assay text: in vitro
Set-up: species or system HB2, CCD841
particulars: human, hek293 cells
Give the value, in units of %, as a plain number.

Answered cases to consult:
1. C=CC(=O)N1CCC(C(=O)N(C)c2ccccc2)C1 (centres unmarked)
72.2
2. O=C(Nc1ccccc1O)C1CCN(C(=O)CCl)CC1
16
3. C=CC(=O)N1CC(Oc2ccc(C#N)cc2)C1
73.3
4. CN(C)C(=O)c1cccc(NC(=O)CCl)c1
13.8
5. CC(C)C(C)(C#N)NC(=O)CCl (centres unmarked)
89.9
6. COc1ccc(C)cc1NC(=O)CCl
63.7
7. C=CC(=O)N1CCc2ccccc21
72.5
8. O=C(CCl)N1CCOC(c2ccc(F)cc2)C1 (centres unmarked)
4.8
9. CNC(=O)c1cccc(NC(=O)CCl)c1
1.7
10. C=CC(=O)NCC1CCCCC1
79

We now examine a further compound.
If you can, please state the reported viability at 48 h, 10 µM value of "C=CC(=O)N1CCn2c(cc3ccccc32)C1" . 85.7

----------
assay text: in vitro
Parameters: species or system HB2, CCD841
particulars: human, hek293 cells
parameter: viability at 48 h, 10 µM (%)
Give the value, in units of %, as a plain number.

Answered cases to consult:
1. O=C(CCl)Nc1nc2ccccc2s1
65.6
2. Cc1cccc(CNC(=O)CCl)c1
87.5
3. O=C(CCl)NCC(=O)N1CCCC1
116
4. C=CC(=O)N1CCCC(c2nc(-c3cccc(F)c3)no2)C1 (stereo not drawn)
89.4

If you can, please state the reported viability at 48 h, 10 µM value of "O=C(CCl)N1CCOCC1" . 97.6

If you can, please state the reported viability at 48 h, 10 µM value of "Cc1ccc(C)c(NC(=O)CCl)c1" . 51.5

----------
target or system: OTUB2 (OTUB2A) (Homo sapiens)
Construct: full length residues 1-234, E. coli BL21(DE3)-R3, His tag removed by TEV, construct 27312 Da
Design: Intact protein LC/MS covalent labelling, fragments in pools of five, 200 uM each, 4 °C
particulars: 24 h, 4 °C, pool of five; 200 µM; covalent
Parameter OTUB2: see the listing below.
Please give the numeric answer without any surrounding text.

Answered cases to consult:
1. C=CC(=O)N1CCCC1C1COCCC1(C)O (stereo not shown) [PCM-0102571]
0
2. C=CC(=O)NCC1CCC2(CCOCC2)C1O (stereo not shown) [PCM-0102569]
0
3. O=C(CCl)NC1(c2ccc3c(c2)OCCO3)CCCC1 [PCM-0102951]
0
4. C=CC(=O)N1CCn2c(cc3ccc(Cl)cc32)C1 [PCM-0102503]
0
5. CN(C)C(=O)CN1CCN(C(=O)CCl)CC1.Cl [PCM-0102304]
0
6. O=C(CCl)Nc1nc(-c2c[nH]c3ccccc23)cs1 [PCM-0102233]
0.25

If you can, please state the reported OTUB2 value of Cc1sc(NC(=O)CCl)c(C)c1C [PCM-0102968] . 0

If you can, please state the reported OTUB2 value of C=CC(=O)N1CCC(N)CC1.Cl [PCM-0102844] . 0

If you can, please state the reported OTUB2 value of C=CC(=O)N1CCCCC1c1ncon1 (stereo not shown) [PCM-0102517] . 0

If you can, please state the reported OTUB2 value of C=CC(=O)Nc1cccc(C(F)(F)F)c1 [PCM-0102573] . 0

If you can, please state the reported OTUB2 value of Cc1ccc(S(=O)(=O)NC(=O)CCl)cc1 [PCM-0102850] . 0.13

If you can, please state the reported OTUB2 value of CC(C)NC(=O)NC(=O)CCl [PCM-0102504] . 0

If you can, please state the reported OTUB2 value of CC1(NC(=O)CCl)CCS(=O)(=O)C1 (stereo not shown) [PCM-0102230] . 0

If you can, please state the reported OTUB2 value of CN(Cc1cc(C#N)ccc1F)C(=O)CCl [PCM-0102897] . 0

If you can, please state the reported OTUB2 value of O=C(CCl)NC1CCCC(C(F)(F)F)C1 (stereo not shown) [PCM-0102862] . 0.14

If you can, please state the reported OTUB2 value of O=C(CCl)N1CCOC1=O [PCM-0102943] . 0

----------
target or system: OTUB2 (OTUB2A) (Homo sapiens, UniProt Q96DC9)
Construct: full length residues 1-234, E. coli BL21(DE3)-R3, His tag removed by TEV, construct 27312 Da
Sequence (Q96DC9 1-234): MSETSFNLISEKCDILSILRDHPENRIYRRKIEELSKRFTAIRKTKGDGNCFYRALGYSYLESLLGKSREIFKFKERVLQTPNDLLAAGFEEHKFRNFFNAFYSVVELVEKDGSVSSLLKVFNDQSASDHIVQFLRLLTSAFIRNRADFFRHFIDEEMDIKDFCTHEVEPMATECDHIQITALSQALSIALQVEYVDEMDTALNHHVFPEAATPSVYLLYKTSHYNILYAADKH
Set-up: Intact protein LC/MS covalent labelling, fragments in pools of five, 200 uM each, 4 °C
particulars: 24 h, 4 °C, pool of five; 200 µM; covalent
Parameter OTUB2: see the listing below.
Please give the numeric answer without any surrounding text.

If you can, please state the reported OTUB2 value of CC(c1cc2ccccc2o1)N(C)C(=O)CCl (centres unmarked) [PCM-0102971] . 0

If you can, please state the reported OTUB2 value of O=C(CCl)Nc1cc(Cl)ccc1Cl [PCM-0102288] . 0

----------
assay text: in vitro
Design: species or system CCD841, HEK293
particulars: human, hb2 cells, read-out: HB-2 Cells Viability (%)
Parameter viability at 48 h, 10 µM: see the listing below.
Give the value, in units of %, as a plain number.

Answered cases to consult:
1) C=CC(=O)N1CCC(S(=O)(=O)N2CCCC2)C1 (centres unmarked)
97.8
2) CN(Cc1cnn(C)c1)C(=O)CCl.Cl
101
3) COc1ccccc1N1CCN(C(=O)CCl)CC1.Cl
44.1
4) COc1ccc2c(c1)CCCN2C(=O)CCl
7.5
5) O=C(CCl)Nc1cc([N+](=O)[O-])ccc1Cl
1.3
6) CC1(C)C2CCC1(C)C(NC(=O)CCl)C2 (centres unmarked)
84.4

If you can, please state the reported viability at 48 h, 10 µM value of "O=C(CCl)NNC(=O)C1CCC1" . 8.2

If you can, please state the reported viability at 48 h, 10 µM value of "O=C(CCl)NNC(=O)c1ccc([N+](=O)[O-])cc1" . 91

If you can, please state the reported viability at 48 h, 10 µM value of O=C(CCl)N1CCC2CCCCC2C1 (centres unmarked) . 24.3

If you can, please state the reported viability at 48 h, 10 µM value of "Cc1cc(Br)ccc1NC(=O)CCl" . 34.9

If you can, please state the reported viability at 48 h, 10 µM value of CN(CC1COc2ccccc2O1)C(=O)CCl (centres unmarked) . 13.3

----------
Parameter viability at 48 h, 10 µM: see the listing below.
assay text: in vitro
Parameters: species or system HB2, HEK293
particulars: human, ccd841 cells
Quick note: number first, unit second.

Answered cases to consult:
1. Cc1ccc(-n2nc(C)cc2NC(=O)CCl)cc1
67.5%
2. COC(=O)C1(NC(=O)CCl)CCC(C)CC1 (stereo not shown)
96.8%

If you can, please state the reported viability at 48 h, 10 µM value of "O=C(CCl)Nc1cc([N+](=O)[O-])ccc1Cl" . 4.3%

If you can, please state the reported viability at 48 h, 10 µM value of COC(=O)C1CN(C(=O)CCl)c2ccccc2O1 (stereo not shown) . 96.4%

----------
target or system: OTUB2 (OTUB2A) (Homo sapiens, UniProt Q96DC9)
Construct: full length residues 1-234, E. coli BL21(DE3)-R3, His tag removed by TEV, construct 27312 Da
Parameters: Intact protein LC/MS covalent labelling, fragments in pools of five, 200 uM each, 4 °C
particulars: 24 h, 4 °C, pool of five; 200 µM; covalent
Parameter OTUB2: see the listing below.
Please give the numeric answer without any surrounding text.

Tell me reported OTUB2 for "O=C(CCl)N1CCCc2cccc(F)c21" , tested with OTUB2 (OTUB2A) (Homo sapiens, UniProt Q96DC9). 0

Tell me reported OTUB2 for "CN(C)C(=O)CNC(=O)CCl" , tested with OTUB2 (OTUB2A) (Homo sapiens, UniProt Q96DC9). 0

Tell me reported OTUB2 for C=CC(=O)N1Cc2c(OC)ccc(OC)c2C(O)C1 (stereo not drawn) , tested with OTUB2 (OTUB2A) (Homo sapiens, UniProt Q96DC9). 0.08

Tell me reported OTUB2 for "CC(C)(C)NC(=O)NC(=O)CCl" , tested with OTUB2 (OTUB2A) (Homo sapiens, UniProt Q96DC9). 0

Tell me reported OTUB2 for "O=C(CCl)Nc1cc(Cl)ccc1F" , tested with OTUB2 (OTUB2A) (Homo sapiens, UniProt Q96DC9). 0.13

Tell me reported OTUB2 for "O=C(CCl)Nc1ccc(Br)cc1F" , tested with OTUB2 (OTUB2A) (Homo sapiens, UniProt Q96DC9). 0.2
